- Assay procedure: yeast display, Sf9 membrane polyspecificity reagent, FACS + sequencing; frameworks hold sequencing errors

[
  {
    "Residue sequence": "QVQLVESGGGLVQAGGSLRLSCAASGRTFNPNAMGWYRQAPGKERELVAAISSSGGSTYYADSVKGRFTISRDNAKNTVYLQMNSLKPEDTAVYYCAAVHKWYLYYYWGQGTQVTVSS",
    "polyreactivity (PSR sort gate)": "high polyreactivity"
  },
  {
    "Residue sequence": "QVQLVESGGGLVQAGGSLRLSCAASGRIFRYYAMGWYRQAPGKERELVAAISWSGGSTYYADSVKGRFTISRDNAKNTVYLQMNSLKPEDTAVYYCNAYIYRAVPYDYWGQGTQVTVSS",
    "polyreactivity (PSR sort gate)": "high polyreactivity"
  }
]

---

- Assay procedure: yeast display, Sf9 membrane polyspecificity reagent, FACS + sequencing; frameworks hold sequencing errors

[
  {
    "Residue sequence": "QVQLVESGGGLVQAGGSLRLSCAASGSTFCDYTMGVYRQAPGKERELLAAISRRGGITYYADSVKGRFTISRDNAKNTVYLQMNSLKPEDTAVYYCNKVYNPKSYIQYDYWGQGTQVTVSS",
    "polyreactivity (PSR sort gate)": "high polyreactivity"
  },
  {
    "Residue sequence": "QGQLVESGGGLVQAGGSLRLSCAACGSIFTYYTMGWYRQAPGKERELVAAIRWSAGRTYYADSVKGRFTISRDNAKNTVYLQMNSMKPEDTAVYYCAAAERLRHGLKFDYWGQGTQVTLSS",
    "polyreactivity (PSR sort gate)": "high polyreactivity"
  },
  {
    "Residue sequence": "QVQLVESGGGLVQAGGSLRLSCAASGRIFPSYAMGWYRQAPGKERELVAAISSSSAGTYYADSVKGRFTISRDNAKNTVYLQMNSLKPEDTAVYYCAAASARYRQYKSYYYWGQGTQVTVSS",
    "polyreactivity (PSR sort gate)": "high polyreactivity"
  }
]

---

- Assay procedure: yeast display, Sf9 membrane polyspecificity reagent, FACS + sequencing; frameworks hold sequencing errors
Endpoint label: polyreactivity (PSR sort gate)

Consider the worked cases shown below.
[
  {
    "Residue sequence": "QVQLVESGGGVGQAGGSLRLSCAASGYTFPDYAMGWYRQAPGKERELFAAIRSGGGTNYADSVKGRFTISRDNAKNTVYLLMNSLQPVDTAVYYSAKEWAGGLYDYWGQGTKVTVSS",
    "polyreactivity (PSR sort gate)": "low polyreactivity"
  },
  {
    "Residue sequence": "QVQLVESGGGLVQAGGSLRLSCAASGRTFWSYAMGWYRQAPGKERELVAAIRTSDGITYYADSVKGRFTISRDNAKNTVYLQMNSLKPEDTAVYYCARDIRQYILYGRGDYWGQGTQVTVSS",
    "polyreactivity (PSR sort gate)": "low polyreactivity"
  },
  {
    "Residue sequence": "QVQLVESGGGLVQAGGSLRLSCAASGFTFRHNVMGWYRQAPGKERELVATITWSGGRTSYADSVKGRFTISRDNAKNTVYLQMKSLKPEDTAVYYCAARFFSYSQYAYNYWGQGTQVTVSS",
    "polyreactivity (PSR sort gate)": "high polyreactivity"
  },
  {
    "Residue sequence": "QVQLVESGGGLVQAGGSLRLTCAASGRIFTRYMGWYRQAPGKERELVATINWSGGSTYYADSVKGRFTISRDNEKNTFYLQMNSLKPEDTAVYYCNARNVHFYYVQYNGAKIFDYWGQGTQVTVSS",
    "polyreactivity (PSR sort gate)": "low polyreactivity"
  },
  {
    "Residue sequence": "QVQLEESGGGLVQAGGSLRLSCAASGSTFYPYAMGWYIQAPGTERELVAAISSRDGRTYYADSVKGRFTISRDNAKNTVYLQMNSLTPEDTAVYYCAASSFNNGHRYDYWGQGTQVTVSS",
    "polyreactivity (PSR sort gate)": "high polyreactivity"
  },
  {
    "Residue sequence": "QVQLVESGGGLVQAGGILRLSCAASGGIFNRYSKGWYRQAPGKERELVAGITRSGGSTSYADSVKGRFTISRDNAKNTVYLQMNSLKPEDTAVYFCKKVAYYASSSSYRFGAYGYWGQGSQVTVSS",
    "polyreactivity (PSR sort gate)": "high polyreactivity"
  },
  {
    "Residue sequence": "QVQLVESGGGLVQAGGSLRLSCAASGSTVYLNAMGWYRQAPGKDRELVAAITRIGGSTYYADSVKGRFTISRDNAKNTVYLQMNSLKPEDTAVYYCAKDYGPARHDRYGYWGLGTQVTVSS",
    "polyreactivity (PSR sort gate)": "low polyreactivity"
  },
  {
    "Residue sequence": "QVQLVESGGGLVQAGGSLRLSCAASGSTFYDYAMGWYRQAPGKERELVAAINGNGDSTYYADSVKGRFTISRDNAKNTVYLQMNSLKPEDTAVYYCAASGYRRYYGYDYWGQGTQVTVSS",
    "polyreactivity (PSR sort gate)": "low polyreactivity"
  },
  {
    "Residue sequence": "QVQLVESGGGLVQAGGSLRLSCAASGLIIDGYAMGWSRQAPGKERELVATITVSGTSTYYADSVKGRFTISRDNAKNTVYLQMNSLKPEDTAVYYCDTDRNYGYYFVEYDHDYWGQGTQVTVSS",
    "polyreactivity (PSR sort gate)": "low polyreactivity"
  },
  {
    "Residue sequence": "QVQLVESGVGLVQAGGSLRLSCAASGRTFAQYAMGCYRQAPGKERELVAVISRCTGRTYYADSVKGRFTISRDNAKNTVYLQMNSLKPEDTALYYCNTSPKLTYALLYVYWGQGTQVNVSS",
    "polyreactivity (PSR sort gate)": "high polyreactivity"
  }
]

# polyreactivity (PSR sort gate) of `QVQHVESGGGLVQAGGSLRLSCAASGFIFYRYTMVWYRQAHGKERELVAAISQSGGNTYYADSVKGRFTISRDNAKNTVYLLMNSLKPEDTAVYYCNAVYYYYAGNYWGQGTQVTVSS` = high polyreactivity

# polyreactivity (PSR sort gate) of `HVQLVESGGGLVQAGGSLRLSCAASGRISDRYAMGWSRQAPGKEREFVAAISWSGASTYYADSVKGRFTISRDNAKNTVYLQMNSLKAEDTAVYYCAARRRHKYDYWGQGTQVTVSS` = high polyreactivity

# polyreactivity (PSR sort gate) of `QVQLVESGGGLVQAGGSLRLSCASSGFIFFSYAMGWYRQAPGKERELVASISRSGGTTYYADSVKGRFTISRDNAKNTVYLQMNSLKPEDTAVYYCAARTYSYYSRDYWGQVTQVTVSS` = high polyreactivity

# polyreactivity (PSR sort gate) of `QVQLVESGGGLVQAGGSLRLSCAASGSTFLQYAMGWYRQPPGKERELVAAIRFSTGTTYYADSVKGRFTISRDNAKNTVYLQMNSLKPEDTAVYYCNAVGTYRPWFHTYGYWGQGTQVTVSS` = high polyreactivity

# polyreactivity (PSR sort gate) of `QVQLVETGGGLVQAGGSLRLSCAASGRTFAGNAMGWYRQAPGKERELVAGISSGGSTNYADSVKGRFTISRDNAKNTVYLQMNSLNPEDTAVYYCAKRYFRKGYPLFHYAYGYWGQVTQVTVSS` = high polyreactivity

# polyreactivity (PSR sort gate) of `QVQLVESGGGLVQAGGSLRLSCAASGNIFYAYAMGWYRQAPGKEREFVAAITKNGGSTYYADSVKGRFTISRDNAKNTVYLQMISLKPEYTAVYYCTAGGVYPRFTFLEQGYEMDYWGQGTQVTVSS` = low polyreactivity

---

- Assay procedure: yeast display, Sf9 membrane polyspecificity reagent, FACS + sequencing; frameworks hold sequencing errors
Endpoint label: polyreactivity (PSR sort gate)

Consider the worked cases shown below.
[
  {
    "Residue sequence": "QVQLVESGGGLVQAGGSLRLSCAASGIIFGVYAMGWYRQAPGKERELVADISSGDSTNYADSVKGRFTISRANAKNTVYLQMNSLKPEDTAVYYCAAEFGRMYWRYGYWGQGTQVTVSS",
    "polyreactivity (PSR sort gate)": "low polyreactivity"
  },
  {
    "Residue sequence": "QVQLVESGGGLVQAGGSLRLSCAASGSIFYNYAMGWYRQAPGKEREFVAGITRSGGTTSYADSVKGRFTISRDNAKNTVYLQMNSLKPEDTAVYYCAAVVYLQAWYGYWDYYYWGQGTQVTVSS",
    "polyreactivity (PSR sort gate)": "high polyreactivity"
  },
  {
    "Residue sequence": "QVQLVESGGGLVQAGGSLRLSCAASGSIFASNTMGWYRQAPGKERELVAGITKIGSSTYYADSVKGRFTISRDNAKNTVYLQMNSLKPEDTAVYYCAAGAWRGPYSGYYYWGQGTQVTVST",
    "polyreactivity (PSR sort gate)": "low polyreactivity"
  },
  {
    "Residue sequence": "QVQLVESGGGLVQAGGSLRLSCAASGSTFPDNAMGWYRQAPGKERELVATITSGASTYYADSVKGRFTISRDNAKNTVYLQMNSLKPEDTAVYYCAVDVYFYYRHYGYWGQGTQVTVSS",
    "polyreactivity (PSR sort gate)": "low polyreactivity"
  },
  {
    "Residue sequence": "QVQLVESGGGLVQAGGRLRLSCAASGSIFLHNAMGWYRQAPGKERELVAAISGTGGRTYYADSVKGRFTISRDNAKNTVYLQMNSLKPEDTAVYYCAVVFYHRHSYYWGQGTQVTVSS",
    "polyreactivity (PSR sort gate)": "high polyreactivity"
  }
]

# polyreactivity (PSR sort gate) of `QVQLVESGGGLVQAGGSLRLSCAASGRMIKYNTMGWYRQAPGKERELVAAISLSSGSGGGTRYADSVKGRFKISRDNAKNTVYLQMNSLKPEDTAVYYCAARHRYTNEYDYWGQGTQVTVSS` = low polyreactivity

# polyreactivity (PSR sort gate) of `QVQLVESGGGLVQAGGSLRLSCAASGRIFSRSAMGWYRQAPGKERELVAAIRWSTGSTNYADSVKGRFTISRDNAKNTVYLQMNSLKPEDTAVYYCNARYYVRPYSPGYYYWGQGTQVTVSS` = high polyreactivity

# polyreactivity (PSR sort gate) of `QVQLVESGGGLVQAGGSLRLSCAASGRIFEWNAMGWYRQAPGKERELVAAISWSGGSTYYADSVKGRFTISRDNAKNTVYLQMNSLKPEDTAVYYCAALTYRWSARDYWGQGTQVTVSS` = high polyreactivity

# polyreactivity (PSR sort gate) of `QVQLVESGGGLVQAGGSLRLSCAASGFIIAGYAMGWYRQAHGKEMELVAAISSRGGSTYYADSVKGRFTISRDNAKNTFYLQMNSLKPEDTSVYYCARTTPTGRQYRRYDYWGQGTQVTESS` = low polyreactivity

# polyreactivity (PSR sort gate) of `QVQLVESGGGLVQAGGSLRLSCAASGLIIYYYAMGWYRQAPGKERELVAAISGSSGASTYYADSVKGRFTISRVNAKNTVYIQMNSLKPEDSAVYYCAADRGYWRYDYWGQGTQVTVSS` = low polyreactivity
